Data provenance is ChEMBL document CHEMBL4725473.

Target: PRMT5/MEP50 complex (Homo sapiens)
Experiment: Binding affinity to N-terminal FLAG-tagged human PRMT5 (1 to 637 residues)/N-terminal thrombin His-tagged MEP50 (2 to 342 residues) expressed in baculovirus infected Sf21 cells by streptavidin coated sensor chip based surface plasmon resonance analysis
result type: Kd (nM)
Kindly answer with a numeric value in nM, unit omitted.

The compound listed as CN1CCC2(CCCN2C[C@H]2O[C@@H](n3ccc4c(N)ncnc43)[C@H](O)[C@@H]2O)CC1 shows Kd equal to 7.6

###

Target: Protein arginine N-methyltransferase 5 (Homo sapiens, UniProt O14744)
Sequence (O14744 whole entry): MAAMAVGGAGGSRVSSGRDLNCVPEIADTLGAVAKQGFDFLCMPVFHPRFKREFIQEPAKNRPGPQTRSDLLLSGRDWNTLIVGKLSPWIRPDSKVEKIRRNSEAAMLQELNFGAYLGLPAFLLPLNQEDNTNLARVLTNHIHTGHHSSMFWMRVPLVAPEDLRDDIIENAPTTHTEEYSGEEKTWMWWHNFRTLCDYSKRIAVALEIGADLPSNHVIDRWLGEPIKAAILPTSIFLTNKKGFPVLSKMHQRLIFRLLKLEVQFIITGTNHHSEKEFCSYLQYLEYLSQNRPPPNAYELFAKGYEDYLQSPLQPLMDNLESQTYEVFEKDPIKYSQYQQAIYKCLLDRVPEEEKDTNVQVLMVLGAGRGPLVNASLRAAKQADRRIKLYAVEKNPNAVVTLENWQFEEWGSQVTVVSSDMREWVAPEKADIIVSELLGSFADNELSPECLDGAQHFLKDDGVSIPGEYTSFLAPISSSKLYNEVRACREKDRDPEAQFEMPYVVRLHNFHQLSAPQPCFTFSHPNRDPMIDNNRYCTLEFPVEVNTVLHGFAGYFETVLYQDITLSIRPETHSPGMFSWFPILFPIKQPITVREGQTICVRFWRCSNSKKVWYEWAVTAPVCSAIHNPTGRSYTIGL
Assay: Inhibition of PRMT5 in human A549 cells assessed as reduction in arginine dimethylation of SmD1/3 after 48 hrs by Hoechst Stain/ CellMask Deep Red Stain based immunohistochemistry method
IC50 for assorted compounds
I only need the number, in nM, no unit after it.

Example entries and their recorded answers appear below.
{"smiles structure": "Nc1ncnc2c1ncn2[C@@H]1O[C@H](CN2CCCC23CCNCC3)[C@@H](O)[C@H]1O", "IC50 (nM)": 2300}
{"smiles structure": "NCC[C@@H]1CCCN1C[C@H]1O[C@@H](n2cnc3c(N)ncnc32)[C@H](O)[C@@H]1O", "IC50 (nM)": 2400}
{"smiles structure": "CN1CCC2(CCCN2C[C@H]2O[C@@H](n3ccc4c(N)ncnc43)[C@H](O)[C@@H]2O)CC1", "IC50 (nM)": 200}

As a next step, examine the compound that follows.
// IC50 value for Nc1ncnc2c1ccn2[C@@H]1O[C@H](CN2CCCC23CCNCC3)[C@@H](O)[C@H]1O : 58

###

Target: PRMT5/MEP50 complex (Homo sapiens, UniProt O14744)
Sequence (O14744 whole entry, the tested form may be a part): as the sequence (O14744 whole entry) above
Sequence (Q9BQA1 whole entry, further chain, the tested form may be a part): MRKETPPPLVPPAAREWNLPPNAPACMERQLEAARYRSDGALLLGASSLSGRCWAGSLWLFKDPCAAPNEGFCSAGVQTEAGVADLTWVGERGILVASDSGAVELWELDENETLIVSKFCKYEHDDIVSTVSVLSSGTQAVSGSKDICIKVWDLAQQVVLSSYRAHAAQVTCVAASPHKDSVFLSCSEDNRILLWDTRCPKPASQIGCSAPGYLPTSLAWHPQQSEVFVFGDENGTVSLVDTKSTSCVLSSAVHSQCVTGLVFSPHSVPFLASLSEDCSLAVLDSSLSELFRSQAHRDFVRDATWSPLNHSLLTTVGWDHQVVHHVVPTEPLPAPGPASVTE
Assay: Inhibition of full-length human N-terminal FLAG-tagged PRMT5/full length N-terminal His6-tagged MEP50 (unknown origin) expressed in baculovirus infected Sf9 insect cells assessed as reduction of S-adenosyl-L-homocysteine formation using human recombinant histone H2A (1 to 130 residues) and S-adenosyl-L-methionine as substrate after 60 mins by rapidfire mass spectrometry analysis
The following compounds are listed with their measured pIC50 values.
pIC50 is defined as minus the log10 of a concentration measured in mol/L.

Worked cases, pIC50 given:
{"compound": "Nc1ncnc2c1ncn2[C@@H]1O[C@H](CN2CCCC23CCNC3)[C@@H](O)[C@H]1O (stereo in doubt; 3b)", "result type": "pIC50", "recorded measurement": 5.57}
{"compound": "Nc1ncnc2c1ncn2[C@@H]1O[C@H](CN2CCCC23CCNCC3)[C@@H](O)[C@H]1O", "result type": "pIC50", "recorded measurement": 7.28}
{"compound": "Nc1ncnc2c1ncn2[C@@H]1O[C@H](CN2CCC3(CCNCC3)C2)[C@@H](O)[C@H]1O", "result type": "pIC50", "recorded measurement": 5.27}
{"compound": "Nc1ncnc2c1ncn2[C@@H]1O[C@H](CN2CCC23CNC3)[C@@H](O)[C@H]1O", "result type": "pIC50", "recorded measurement": 5.29}
{"compound": "Nc1ncnc2c1ncn2[C@@H]1O[C@H](CN2CCC23CCNCC3)[C@@H](O)[C@H]1O", "result type": "pIC50", "recorded measurement": 6.43}

Looking up NCC[C@@H]1CCCN1C[C@H]1O[C@@H](n2cnc3c(N)ncnc32)[C@H](O)[C@@H]1O , I found its pIC50 recorded as 7.08

// field: pIC50; key: Nc1ncnc2c1ncn2[C@@H]1O[C@H](CN2CCCC2)[C@@H](O)[C@H]1O ; value = 4.12

Recorded pIC50 (compound Nc1ncnc2c1ncn2[C@@H]1O[C@H](CN2CCCC23CNC3)[C@@H](O)[C@H]1O ): 6.13

The measured pIC50 associated with Nc1ncnc2c1ccn2[C@@H]1O[C@H](CN2CCCC23CCNCC3)[C@@H](O)[C@H]1O reads 8.02

The compound identified as Nc1ncnc2c1ncn2[C@@H]1O[C@H](CN2CCCC3(CNC3)C2)[C@@H](O)[C@H]1O registered its pIC50 at 6.28

Consider NCC[C@H]1CCCN1C[C@H]1O[C@@H](n2cnc3c(N)ncnc32)[C@H](O)[C@@H]1O . Its measured pIC50 is 6.47

###

Molecular target: PRMT5/MEP50 complex (Homo sapiens)
Assay: Inhibition of full-length human N-terminal FLAG-tagged PRMT5/full length N-terminal His6-tagged MEP50 (unknown origin) expressed in baculovirus infected Sf9 insect cells assessed as reduction of S-adenosyl-L-homocysteine formation using human recombinant histone H2A (1 to 130 residues) and S-adenosyl-L-methionine as substrate after 60 mins by rapidfire mass spectrometry analysis
result type: IC50 (µM)
Write down the numeric answer in µM and omit the unit.

Reported IC50 of CN1CCC2(CCCN2C[C@H]2O[C@@H](n3ccc4c(N)ncnc43)[C@H](O)[C@@H]2O)CC1 : 0.048

Entry Nc1ncnc2c1ncn2[C@@H]1O[C@H](CN2CCCC23CCNC3)[C@@H](O)[C@H]1O (stereo in doubt; 3a) — recorded IC50 = 3.3

###

Molecular target: PRMT5/MEP50 complex (Homo sapiens)
Experiment: Inhibition of full-length human N-terminal FLAG-tagged PRMT5/full length N-terminal His6-tagged MEP50 (unknown origin) expressed in baculovirus infected Sf9 insect cells assessed as reduction of S-adenosyl-L-homocysteine formation using human recombinant histone H2A (1 to 130 residues) and S-adenosyl-L-methionine as substrate after 60 mins by rapidfire mass spectrometry analysis
Collected IC50 values appear next to each entry.

Record summary for Nc1ncnc2c1ncn2[C@@H]1O[C@H](CN2CCC3(CCNC3)CC2)[C@@H](O)[C@H]1O : reported IC50 = > 10 µM

Notebook: CC(=O)N1CCC2(CCCN2C[C@H]2O[C@@H](n3cnc4c(N)ncnc43)[C@H](O)[C@@H]2O)CC1 , IC50 read as > 10 µM

Documented IC50 of Nc1ncnc2c1ncn2[C@@H]1O[C@H](CN2CCC3(CCNCC3)CC2)[C@@H](O)[C@H]1O : > 10 µM
